# protocol-description: chemical genetic growth profiling, strain panel (AID 1159580);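 note: tested at 20 µM; growth read once vehicle control cultures reached saturation at 30 °C; lower values mean less growth of the strain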
# condition-info: S. cerevisiae deletion strains, growth OD, locus YDR101C, strain arx1
The whole screen tested about 5,500 compounds, of which about 2,000 (36%) were called active. Another 18% or so got no clear call; they are omitted. Cut-off read from the data, not from the text of the source: active = normalized growth mostly below about 0.91 (no sharp cut-off); inconclusive = no clear call, values can overlap the other calls; inactive = mostly above about 0.92. This is one part of the list.
# valid calls are yes (active), no (inactive); nothing else

Solved cases (2 shown):
{"compound": "Nc1nc(N)c2nc(-c3ccccc3)c(N)nc2n1", "classification": "no"}
{"compound": "COc1c(O)cc2c(-c3ccccc3)cc(=O)oc2c1OC", "classification": "no"}

Which result was noted for this compound in the test: C=CCCCCCCCCCCCC(O)CC(O)CO (configuration not stated) (tested in a mixture with another compound)
yes

Which result was noted for this compound in the test: `O=c1c(-c2ccc(O)cc2)coc2cc(O)cc(O)c12`
no

Which result was noted for this compound in the test: `O=c1c(-c2ccccc2)coc2cc(O)cc(O)c12`
yes

Which result was noted for this compound in the test: `O=c1c2ccccc2oc2ccc(O)cc12`
no

Which result was noted for this compound in the test: CC1(C)O[C@@H]2CC3C4C[C@H](F)C5=CC(=O)C=C[C@]5(C)[C@@]4(F)[C@@H](O)C[C@]3(C)[C@]2(C(=O)CO)O1 (some centres not stated)
no
